Reference source: the supplement of paper PMC11208160

# assayProtocol: recombinant UMI read abundance after kanamycin selection (control-corrected) (log10(CPM+1)); higher = more efficient recombination; extreme values may be limits of the assay; sequences stand for … in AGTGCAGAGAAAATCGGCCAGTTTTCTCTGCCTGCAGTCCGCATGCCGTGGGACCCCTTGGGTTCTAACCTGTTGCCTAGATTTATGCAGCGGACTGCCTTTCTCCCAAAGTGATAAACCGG…AGGTTGGTTTCACT; site = the 11-nt donor;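 further: IS621 bridge recombinase in Escherichia coli cells against a fixed T5 target plasmid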
# recombinant UMI read abundance (log10) >= 1 gives rule met, anything below gives rule not met

{"inputSequence": "CCAGGTGCATGGACCGGTTTTCCCGGTAATCCGTATTTGGT (site CCAGGTGCTAT)", "assignedLabel": "rule not met"}
{"inputSequence": "ACATCATCATGGACCGGTTTTCCCGGTAATCCGTATTTGCT (site ACATCATCTAG)", "assignedLabel": "rule met"}
{"inputSequence": "GCGGAATCATGGACCGGTTTTCCCGGTAATCCGTATTTGTT (site GCGGAATCTAA)", "assignedLabel": "rule met"}
{"inputSequence": "GAAGTCGCATGGACCGGTTTTCCCGGTAATCCGTATTTGGT (site GAAGTCGCTAC)", "assignedLabel": "rule met"}
{"inputSequence": "CGGGACCCATGGACCGGTTTTCCCGGTAATCCGTATTTGAT (site CGGGAGCCTAT)", "assignedLabel": "rule not met"}
